Sourced from patent US4443536A

assay: Dye hue from spectrophotometric curves: λ-max, half band width, curve shape factor; settings: Table I; coupler solvent CS-2; developer D-3
assay-endpoint: CSF (curve shape factor, 100 X TBW/HBW)

compound	observed-measurement
CCCCCCCCCCC(Oc1ccc(S(=O)(=O)c2ccc(O)cc2)cc1)C(=O)Nc1ccc(Cl)c(NC2=NN(c3c(Cl)cc(Cl)cc3Cl)C(=O)C2SCCCCCCC)c1 (centres unmarked) [Coupler M-29]	40.9
CCCCCCCCCCC(Oc1ccc(S(=O)(=O)c2ccc(O)cc2)cc1)C(=O)Nc1ccc(CCCc2n[nH]c3cc(C)nn23)cc1 (centres unmarked) [Coupler M-8]	50.5
CCCCCCCCCCC(Oc1ccc(S(=O)(=O)c2ccc(O)cc2)cc1)C(=O)Nc1ccc(Cl)c(NC2=NN(c3c(Cl)cc(Cl)cc3Cl)C(=O)C2)c1 (centres unmarked) [Coupler M-28]	46.4
CCCCCCCCCCCCC(Oc1ccc(O)c(C(C)(C)C)c1)C(=O)Nc1ccc(Cl)c(NC2=NN(c3c(Cl)cc(Cl)cc3Cl)C(=O)C2)c1 (centres unmarked) [CC-2, reference compound]	40.4
CCC(C)(C)c1ccc(OCC(=O)Nc2cccc(C(=O)NC3=NN(c4c(Cl)cc(Cl)cc4Cl)C(=O)C3)c2)c(C(C)(C)CC)c1 [CC-3, reference compound]	45.3
